From: PubChem BioAssay (NCI)

Listing of recorded TGI by entry.
# Tested on: CCRF-CEM leukemia
# test_name: NCI tumour cell line growth inhibition, 48 h

Known results for compounds:
CC1(C)OC(=O)C(C)(C)OC1=O = > 100 µM
O=C1C(Cl)C(c2ccc(Cl)cc2)N1n1cnc2ccccc2c1=O (stereo unspecified) = > 100 µM
Nc1nc(N)nc(-c2cnccn2)n1 = > 100 µM

Prompt: Please give the measured TGI for this compound: `CC1(C)C=[N+]([O-])C(C)(C)N1`
Completion: > 100 µM

====

# Tested on: SN12C renal
# test_name: NCI tumour cell line growth inhibition, 48 h
assay_endpoint: TGI

Known results for molecules:
Cc1cc(S(=O)(=O)Nc2nc(N)nc(N3CCOCC3)n2)c(SCC(=O)O)cc1Cl = > 10 µM
O=C1OC(c2ccccc2)=N/C1=C\c1c(O)cc(O)cc1O = > 100 µM

Turning now to a further molecule:
Prompt: Please give the measured TGI for this molecule: `O=[N+]([O-])/C(Cl)=C(\Nc1ccccc1)C(Cl)=C(Cl)Cl`
Completion: > 100 µM

====

# Tested on: M14 melanoma
# test_name: NCI tumour cell line growth inhibition, 48 h; in the data active = GI50 below about 0.43 µM; inactive = the rest
Outcome (select one): active, inactive

These solved cases illustrate the format of a correct answer.
CC(C)=CCC/C(C)=C/CC/C(=C/COP(=O)(OCc1ccc([N+](=O)[O-])o1)N(C)CCCCCl)CC=C(C)C (stereo not drawn) = inactive
CS(=O)c1ccc(-c2nc(-c3ccc(F)cc3)c(-c3ccncc3)[nH]2)cc1 (stereo not drawn) = inactive
CCOC(=O)CNC(=O)CCCn1c(=O)c2c3ccccc3n(C)c2n2nnc(-c3ccccc3)c12 = inactive
COC(=O)c1c2c(c(C)[n+]([O-])c1C)C(=O)C(NCc1cccc(OC)c1)=CC2=O = inactive
CCn1c(-c2nonc2N)nc2c(C#CC(C)(C)O)nc(O[C@@H](CN)c3ccccc3)cc21 = active
CCN(CC)CCCCCOc1cc(O)c2c(=O)cc(-c3ccccc3)oc2c1 = inactive
O=C(CC1(O)C(=O)Nc2ccc(Br)cc21)c1ccc(C(=O)NCC2CCC3(CC2)OOC2(CCCCC2)OO3)cc1 (stereo not drawn) = inactive

Lab note: next compound to report on.
Prompt: Tell me the recorded outcome of this test for Cc1ccc2[nH]c(C(=O)NN3C(=O)CSC34CCCC(C)C4)c(-c3ccccc3)c2c1 (stereo not drawn) .
Completion: inactive

====

# Test system: IGROV1 ovarian
# test_name: NCI tumour cell line growth inhibition, 48 h
assay_endpoint: TGI

CCCCCC(=O)OCC(=O)[C@H]1[C@H](C)C[C@H]2[C@@H]3C[C@H](F)C4=C/C(=N/OC(=O)c5cccc6c(=O)c7ccccc7[nH]c56)C=C[C@]4(C)[C@H]3[C@@H](O)C[C@@]21C = > 100 µM
CC(=O)O[C@H]1C(=O)[C@@]2(C)[C@H]([C@H](OC(=O)c3ccc([N+](=O)[O-])cc3)[C@]3(O)C[C@H](OC(=O)[C@H](O)[C@@H](NC(=O)c4ccccc4)c4ccccc4)C(C)=C1C3(C)C)[C@]1(OC(C)=O)CO[C@@H]1C[C@@H]2O = > 25 µM
O=C(O)c1ccc(N=Nc2cc(S(=O)(=O)O)c3cccnc3c2O)cc1 = > 100 µM

Prompt: Find the measured TGI: item `CCOC(=O)C1=C(O)c2ccccc2C(=O)C1=O` , target or system IGROV1 ovarian.
Completion: > 100 µM
